Record set of IC50 for target or system Histone deacetylase 3 (Homo sapiens).
Numeric answer only, unit nM assumed.

Could you share which IC50 value was measured for "COC(=O)Cc1c(C)n(Cc2ccc(-c3cn(CCCCCCC(=O)NO)nn3)cc2)c2ccc(OC)cc12" ?
35

What do you get for "COc1ccc2c(c1)c(CC(=O)O)c(C)n2Cc1ccc(-c2cn(CCCCCCC(=O)NO)nn2)cc1" ?
59

What do you get for "Cc1ccc(-c2cc(C(=O)NCCCCCCC(=O)NO)nn2-c2ccc(S(N)(=O)=O)cc2)cc1" ?
333

What do you get for "Cc1ccc(-c2cc(C(F)(F)F)nn2-c2ccc(S(=O)(=O)NCCCCCCC(=O)NO)cc2)cc1" ?
424

What do you get for "Cc1ccc(-c2cc(C(=O)NCCCCCC(=O)NO)nn2-c2ccc(S(N)(=O)=O)cc2)cc1" ?
191

What do you get for "COc1ccc2c(c1)c(CC(=O)NCCCCCC(=O)NO)c(C)n2C(=O)c1ccc(Cl)cc1" ?
722

What do you get for "COc1ccc2c(c1)c(CC(=O)NCCCCCCCC(=O)NO)c(C)n2C(=O)c1ccc(Cl)cc1" ?
283

What do you get for "Cc1ccc(-c2cc(C(F)(F)F)nn2-c2ccc(S(=O)(=O)NCCCCCCCC(=O)NO)cc2)cc1" ?
256

What do you get for "COC(=O)Cc1c(C)n(Cc2ccc(-c3cn(CCCCCC(=O)NO)nn3)cc2)c2ccc(OC)cc12" ?
224

What do you get for "COC(=O)Cc1c(C)n(Cc2ccc(-c3cn(CCCCCCCC(=O)NO)nn3)cc2)c2ccc(OC)cc12" ?
181
